Every entry's value here was drawn from the supplement of paper PMC10724198.

Tested on: Saccharomyces cerevisiae;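 note: PSI is a weighted mean of sequencing reads over stability bins, variants kept only with over 10 reads, mCherry proximal and sfGFP distal, peptide attached via GGGS linker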
protocol summary: protein stability index of tFT-peptide fusion (C-terminal peptide) (PSI (0-1 scale)); higher = more stable (slower turnover)
settings: genetic background: wild type; temperature: 30 C
protein stability index below 0.7 gives no; protein stability index at or above it gives yes.

Problem: Evaluate RRRSLLLTYSYV : protein stability index at minimum 0.7?
Solution: no

Problem: Evaluate VPSSCFLLDLPP : protein stability index at minimum 0.7?
Solution: no

Problem: Evaluate DRLSSPYTLFCY : protein stability index at minimum 0.7?
Solution: no

Problem: Evaluate LCVVFCIRTYRV : protein stability index at minimum 0.7?
Solution: no

Problem: Evaluate YTTVRGETRSQL : protein stability index at minimum 0.7?
Solution: yes

Problem: Evaluate SLLPPSPPPSRL : protein stability index at minimum 0.7?
Solution: yes

Problem: Evaluate GVFCWVGLSAFL : protein stability index at minimum 0.7?
Solution: no

Problem: Evaluate RKKKKKKRGKNR : protein stability index at minimum 0.7?
Solution: no

Problem: Evaluate PSPPASSPPLPL : protein stability index at minimum 0.7?
Solution: no

Problem: Evaluate FFFLPLFLVLSL : protein stability index at minimum 0.7?
Solution: no

Problem: Evaluate EGRRAVGRGRGR : protein stability index at minimum 0.7?
Solution: no

Problem: Evaluate GRLHHYGRCAQG : protein stability index at minimum 0.7?
Solution: no

Problem: Evaluate RGREGSSVAVMV : protein stability index at minimum 0.7?
Solution: no

Problem: Evaluate RGTWSLFYAFLD : protein stability index at minimum 0.7?
Solution: no

Problem: Evaluate KKKKRKGKRQPR : protein stability index at minimum 0.7?
Solution: no

Problem: Evaluate PPLPSLLGLLFP : protein stability index at minimum 0.7?
Solution: no

Problem: Evaluate SILVSIFILAMQ : protein stability index at minimum 0.7?
Solution: no

Problem: Evaluate LFKFCLGIPLFL : protein stability index at minimum 0.7?
Solution: no

Problem: Evaluate FSRSDREIFPRN : protein stability index at minimum 0.7?
Solution: no

Problem: Evaluate LSASFYFVFFSN : protein stability index at minimum 0.7?
Solution: no

Problem: Evaluate IFWGFSFRGGGC : protein stability index at minimum 0.7?
Solution: no

Problem: Evaluate LFLVLFCVVGFV : protein stability index at minimum 0.7?
Solution: no

Problem: Evaluate PSEPGPPRVSTP : protein stability index at minimum 0.7?
Solution: no

Problem: Evaluate PPPFSPPSDLPL : protein stability index at minimum 0.7?
Solution: no

Problem: Evaluate VLWIWRGFRGLG : protein stability index at minimum 0.7?
Solution: no

Problem: Evaluate RRSLDQSIQAKC : protein stability index at minimum 0.7?
Solution: no

Problem: Evaluate GVGLKMLSVGDI : protein stability index at minimum 0.7?
Solution: no

Problem: Evaluate PPPSPPLPPHSP : protein stability index at minimum 0.7?
Solution: yes

Problem: Evaluate RNTRAVREHRNV : protein stability index at minimum 0.7?
Solution: yes

Problem: Evaluate LVCPFFLSSRIF : protein stability index at minimum 0.7?
Solution: no

Problem: Evaluate FTLFFVASVLDL : protein stability index at minimum 0.7?
Solution: no

Problem: Evaluate KVCESRQVEYFR : protein stability index at minimum 0.7?
Solution: no

Problem: Evaluate GQNASYFPRRTG : protein stability index at minimum 0.7?
Solution: no

Problem: Evaluate LLRWEPNYTENL : protein stability index at minimum 0.7?
Solution: yes

Problem: Evaluate CGSCFIKRFGGG : protein stability index at minimum 0.7?
Solution: no

Problem: Evaluate FLGLSYYRLPVG : protein stability index at minimum 0.7?
Solution: no

Problem: Evaluate PVPRPSERSFLL : protein stability index at minimum 0.7?
Solution: yes

Problem: Evaluate FPLQSFCYFVPI : protein stability index at minimum 0.7?
Solution: no

Problem: Evaluate PQHFARSITPPP : protein stability index at minimum 0.7?
Solution: no

Problem: Evaluate VFALSSVAIRRS : protein stability index at minimum 0.7?
Solution: no

Problem: Evaluate SRLLLPPRGILP : protein stability index at minimum 0.7?
Solution: yes

Problem: Evaluate TSRGGFCLGGVF : protein stability index at minimum 0.7?
Solution: yes

Problem: Evaluate STRPDLLLLAES : protein stability index at minimum 0.7?
Solution: no

Problem: Evaluate YPPCSPGPLAPS : protein stability index at minimum 0.7?
Solution: no

Problem: Evaluate KKQKKKPQNKKK : protein stability index at minimum 0.7?
Solution: yes

Problem: Evaluate WDEDGIFDAGGA : protein stability index at minimum 0.7?
Solution: no

Problem: Evaluate GYRSSWRALRVG : protein stability index at minimum 0.7?
Solution: no

Problem: Evaluate RDGRAGGDIGAT : protein stability index at minimum 0.7?
Solution: no

Problem: Evaluate VVWCLLARVLLV : protein stability index at minimum 0.7?
Solution: no

Problem: Evaluate TSRSPLCTETIP : protein stability index at minimum 0.7?
Solution: yes

Problem: Evaluate PGPWLGLTPCRT : protein stability index at minimum 0.7?
Solution: yes
